# Tested on: human TLR7 (Homo sapiens)
# Sequence (Q9NYK1 27-1049): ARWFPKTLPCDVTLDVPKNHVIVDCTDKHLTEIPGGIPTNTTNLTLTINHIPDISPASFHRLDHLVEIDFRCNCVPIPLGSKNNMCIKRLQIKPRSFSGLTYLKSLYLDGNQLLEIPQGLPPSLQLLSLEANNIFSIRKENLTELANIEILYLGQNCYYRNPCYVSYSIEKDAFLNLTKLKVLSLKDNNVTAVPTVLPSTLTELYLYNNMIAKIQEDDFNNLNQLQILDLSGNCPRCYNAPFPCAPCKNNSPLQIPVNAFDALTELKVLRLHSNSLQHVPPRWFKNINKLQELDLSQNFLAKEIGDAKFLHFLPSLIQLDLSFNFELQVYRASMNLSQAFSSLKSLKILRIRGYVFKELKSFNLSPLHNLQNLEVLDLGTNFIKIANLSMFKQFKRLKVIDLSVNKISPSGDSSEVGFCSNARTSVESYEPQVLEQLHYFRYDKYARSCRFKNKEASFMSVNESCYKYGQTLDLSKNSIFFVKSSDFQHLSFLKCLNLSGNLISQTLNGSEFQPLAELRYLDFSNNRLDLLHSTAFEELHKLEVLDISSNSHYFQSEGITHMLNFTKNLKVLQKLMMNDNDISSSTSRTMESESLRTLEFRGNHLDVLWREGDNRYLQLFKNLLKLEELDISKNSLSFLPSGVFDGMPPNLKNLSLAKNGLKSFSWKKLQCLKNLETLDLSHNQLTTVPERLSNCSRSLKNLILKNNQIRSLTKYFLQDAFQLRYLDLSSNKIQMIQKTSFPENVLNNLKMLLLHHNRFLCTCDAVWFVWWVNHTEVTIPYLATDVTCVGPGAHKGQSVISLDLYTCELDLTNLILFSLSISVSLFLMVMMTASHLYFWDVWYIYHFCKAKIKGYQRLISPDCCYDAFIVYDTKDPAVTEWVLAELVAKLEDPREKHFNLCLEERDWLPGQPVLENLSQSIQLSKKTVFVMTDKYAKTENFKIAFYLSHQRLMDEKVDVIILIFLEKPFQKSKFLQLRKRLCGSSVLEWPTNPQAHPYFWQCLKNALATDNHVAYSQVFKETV
# Assay protocol: TLR7 inhibition reporter assay (HEK-Blue SEAP reporter, gardiquimod stimulation)
# Condition details: HEK-Blue cells overexpressing human TLR7, SEAP reporter, gardiquimod 7.5 μM, 22 hour incubation
Measured parameter: IC50 (nM)

1. Cc1cc(-c2[nH]c3ccc(C4CCNCC4)cc3c2C(C)C)cn(CC(C)C)c1=O [Example 36] : 9.6
2. CNC(=O)CN1CCC(c2ccc3[nH]c(-c4cc(C)c(=O)n(CC(C)C)c4)c(C(C)C)c3c2)CC1 [Example 161] : 50.5
3. Cc1c(-c2[nH]c3ccc(C4CCNCC4)cc3c2C(C)C)cc(Cl)c(=O)n1C [Example 33] : 16.1
4. Cc1nc(-c2[nH]c3ccc(C4CCNCC4)cc3c2C(C)C)cn(C)c1=O [Example 12] : 24.7
5. COc1c(C)c(-c2[nH]c3ccc(C4CCN(C(=O)CN(C)C)CC4)cc3c2C(C)C)cn(C)c1=O [Example 276] : 52.2
6. Cc1cc(-c2[nH]c3ccc(C4CCN(C5CC(C)OC5=O)CC4)cc3c2C(C)C)cn(C)c1=O (stereo not shown) [Example 149] : 16
7. CCCN1CCC(c2ccc3[nH]c(-c4cc(C)c(=O)n(C)c4)c(C(C)C)c3c2)CC1 [Example 224] : 1.8
8. CC(C)c1c(-c2cc(-c3cncnc3)c(=O)n(C)c2)[nH]c2ccc(C3CCN(CC(C)(C)O)CC3)cc12 [Example 326] : 6.1
9. Cc1c(-c2[nH]c3ccc(C4CCNCC4)cc3c2C(C)C)cn(C)c(=O)c1C#N [Example 24] : 75.9
10. CC(C)c1c(-c2ccc(=O)n(C)c2)[nH]c2ccc(C3CCN(C(=O)CN(C)C)CC3)cc12 [Example 301] : 25.7
11. CCn1cc(-c2[nH]c3ccc(C4CCNCC4)cc3c2C(C)C)cc(Cl)c1=O [Example 32] : 1.8
12. CC(C)c1c(-c2ccc(=O)n(CC(N)=O)c2)[nH]c2ccc(C3CCNCC3)cc12 [Example 49] : 2610
13. Cc1c(-c2[nH]c3ccc(C4CCN(CC(=O)N(C)C)CC4)cc3c2C(C)C)cn(C)c(=O)c1C#N [Example 147] : 56.3
14. Cc1cc(-c2[nH]c3ccc(C4CCN(CC(=O)N(C)C)CC4)cc3c2C(C)C)nn(C)c1=O [Example 116] : 29.6
15. Cc1cc(=O)n(C)nc1-c1[nH]c2ccc(C3CCNCC3)cc2c1C(C)C [Example 10] : 330
16. Cc1c(-c2[nH]c3ccc(C4CCN(CCCC(F)(F)F)CC4)cc3c2C(C)C)cn(C)c(=O)c1Cl [Example 105] : 5.1
17. Cc1cc(-c2[nH]c3ccc(C4CCN(C5CCC(C(F)(F)F)CC5)CC4)cc3c2C(C)C)cn(C)c1=O (stereo not shown) [Example 230] : 11.2
18. Cc1c(-c2[nH]c3ccc(C4CCN(CC(C)(C)O)CC4)cc3c2C(C)C)cc(C#N)c(=O)n1C [Example 321] : 36.7
19. CCCN1CCC(c2ccc3[nH]c(-c4cc(-c5ccncc5)c(=O)n(C)c4)c(C(C)C)c3c2)CC1 [Example 336] : 10.2
20. Cc1nc(-c2[nH]c3ccc(C4CCN(CC(=O)N(C)C)CC4)cc3c2C(C)C)cn(C)c1=O [Example 115] : 48
21. Cc1cc(-c2[nH]c3ccc(C4CCN(C(=O)CN(C)C)CC4)cc3c2C(C)C)c(C)n(C)c1=O [Example 279] : 23.1
22. CC(C)c1c(-c2cc(N)c(=O)n(C)c2)[nH]c2ccc(C3CCNCC3)cc12 [Example 9] : 50.8
23. COCCN1CCC(c2ccc3[nH]c(-c4cc(-c5cncnc5)c(=O)n(C)c4)c(C(C)C)c3c2)CC1 [Example 103] : 9.6
24. Cc1cc(-c2[nH]c3ccc(C4CCN(C5CCC(F)(F)CC5)CC4)cc3c2C(C)C)cn(C)c1=O [Example 199] : 1.9
25. CC(C)c1c(-c2cc(-c3cccc(C(N)=O)c3)c(=O)n(C)c2)[nH]c2ccc(C3CCNCC3)cc12 [Example 58] : 5.4
26. COc1cc(-c2[nH]c3ccc(C4CCN(C(=O)CN(C)C)CC4)cc3c2C(C)C)cn(C)c1=O [Example 286] : 5
27. Cc1c(-c2[nH]c3ccc(C4CCN(CCC(C)(C)O)CC4)cc3c2C(C)C)cn(C)c(=O)c1C [Example 73] : 8
28. CC(C)CCN1CCC(c2ccc3[nH]c(-c4cc(-c5ccccc5)c(=O)n(C)c4)c(C(C)C)c3c2)CC1 [Example 90] : 21.7
29. CCCN1CCC(c2ccc3[nH]c(-c4cc(-c5cncnc5)c(=O)n(CC)c4)c(C(C)C)c3c2)CC1 [Example 260] : 23.2
30. Cc1cc(-c2[nH]c3ccc(C4CCN(CCCO)CC4)cc3c2C(C)C)cn(C)c1=O [Example 85] : 2.2
31. CCCN1CCC(c2ccc3[nH]c(-c4cc(-c5ccc(N6CCOCC6)nc5)c(=O)n(C)c4)c(C(C)C)c3c2)CC1 [Example 330] : 7.7
